# System: Neuroblastoma SH-SY5Y cells (SH/APPwt) with human wild-type β-APP excessively expressed
# Experiment notes: Measurement of β-amyloid (Aβ) production inhibitory effect in cell
# Format: cell-based
# Experimental conditions: 24 hours, Aβ 1-40 in culture supernatant by HTRF, read-out: IC50 (amount needed to inhibit Aβ production by 50%)
Measured quantity: IC50 (nM)
Record the value in nM, omitting the unit from your answer.

IC50 in this record for `CCC1=C[C@@](C)(c2cc(NC(=O)c3ccc(C#N)cn3)ccc2F)N=C(N)S1` : 2

====

# Experiment notes: Solubility test
# Format: physicochemical
# Experimental conditions: JP-I medium, pH 1.2, simulated gastric fluid, kinetic from dmso stock, from turbidity after 4 hours, read-out: solubility assessed by 3 stages
# Procedure: A 2-fold dilution series (12 points) of a 10 mM solution of a test compound in DMSO was added to a medium (JP-I, JP-II) (2%), and solubility was assessed by 3 stages (High; >40 μM, Medium; 3-40 μM, Low; <3 μM) from a turbidity after 4 hours (crystallization information). […]
Measured quantity: solubility at 4 h

solubility at 4 h in this record for `C[C@@]1(c2cc(NC(=O)c3ccc(C#N)cn3)ccc2F)C=C(CO)SC(N)=N1` : > 40 µM
